System: T-47D breast
TEST_PROTOCOL: NCI-60 one-dose screen, 48 h (100 = growth as untreated, 0 = no growth, -100 = all killed)
DETAILS: 10 µM unless noted
The panel holds about 83,000 compounds, 20% with a hit somewhere; the sample as a whole holds those more often.
MEASURED_ENDPOINT: growth (%)
# number only, unit % dropped from output

Recorded results for 5 compounds are shown here.
[[record]]
compound = "C=C1C(=O)O[C@H]2[C@H]1CC/C(COC(=O)CCCCC(=O)OC/C1=C/CC[C@@]3(C)O[C@H]3[C@H]3OC(=O)C(=C)[C@@H]3CC1)=C\\CC[C@@]1(C)O[C@@H]21"
tested_system = "T-47D breast"
measured_endpoint = "growth"
measurement_unit = "%"
observed_value = 38.6

[[record]]
compound = "COc1cc(/C=C/C(=O)c2cccs2)ccc1OCc1ccc(Cl)nc1"
tested_system = "T-47D breast"
measured_endpoint = "growth"
measurement_unit = "%"
observed_value = 77.1

[[record]]
compound = "COc1ccc(/C=C(/C(=O)N2CCN(Cc3ccccc3)CC2)c2cc(OC)c(OC)c(OC)c2)cc1O"
tested_system = "T-47D breast"
measured_endpoint = "growth"
measurement_unit = "%"
observed_value = 77.2

[[record]]
compound = "C(=C\\c1cn(-c2ccccc2)nc1-c1ccccc1)/c1nnc(-c2c[nH]c3ccccc23)o1"
tested_system = "T-47D breast"
measured_endpoint = "growth"
measurement_unit = "%"
observed_value = 55.5

[[record]]
compound = "COc1ccc(C2=NN(c3ccc(S(N)(=O)=O)cc3)C(c3ccc(Cl)cc3)C2)c(O)c1 (configuration not stated)"
tested_system = "T-47D breast"
measured_endpoint = "growth"
measurement_unit = "%"
observed_value = 33.8


stdin: Give growth for CN(C)[C@@H]1C(=O)C(C(N)=O)=C(O)[C@@]2(O)C(=O)C3=C(O)c4c(O)cc(CN5CCc6ccccc6C5)c(Cl)c4C[C@H]3C[C@@H]12
stdout: -41.4

stdin: // fetch growth given entry C=C1C(=O)O[C@H]2[C@H]1CC/C(COC(=O)CCCCCCCCC(=O)OC/C1=C/CC[C@@]3(C)O[C@H]3[C@H]3OC(=O)C(=C)[C@@H]3CC1)=C\CC[C@@]1(C)O[C@@H]21
stdout: -27.3

====

Tested on: SW-620 colon
TEST_PROTOCOL: NCI-60 one-dose screen, 48 h
DETAILS: 10 µM unless noted
About 83,000 compounds went through this panel and 20% of them were active in at least one assay; those are over-represented in the sample as a whole. Activity calls are given as the source filed them. The calls were made as follows: active = growth percent below 10; inactive = the rest.
Bench note: report the call from active, inactive

Recorded results for 8 molecules are shown here.
[[record]]
molecule = "CCCCCOC(=O)c1ccccc1O"
category_label = "inactive"

[[record]]
molecule = "O=c1nc(-c2ccccc2)c2cc(-c3ccc(N4CCCC4)nc3)ccc2[nH]1"
category_label = "inactive"

[[record]]
molecule = "COc1ccc2[nH]c3nc4cnccc4cc3c2c1"
category_label = "inactive"

[[record]]
molecule = "NS(=O)(=O)c1ccc(N2Cc3cc(Cl)ccc3OC3=C2C(=O)N(CC2CCCCC2)C3=O)cc1"
category_label = "active"

[[record]]
molecule = "CC(=O)ON1CCCC(P(=O)(OCOC(=O)C(C)(C)C)OCOC(=O)C(C)(C)C)C1=O (centres undefined)"
category_label = "inactive"

[[record]]
molecule = "C=C(C)[C@@H]1CC[C@]2(C(=O)OCCOCCOCC[P+](c3ccccc3)(c3ccccc3)c3ccccc3)CC[C@]3(C)[C@H](CC[C@@H]4[C@@]5(C)CC[C@H](OC(=O)C(Cl)Cl)C(C)(C)[C@@H]5CC[C@]43C)[C@@H]12"
category_label = "active"

[[record]]
molecule = "CCCCn1c2cc(OCc3cn(-c4ccc(Cl)cc4)nn3)ccc2c2ccnc(C)c21"
category_label = "inactive"

[[record]]
molecule = "O=C(/C(=C/c1ccc([N+](=O)[O-])cc1)SCc1ccc(F)cc1)c1ccc(Cl)cc1"
category_label = "active"


stdin: Hey, what did the test say about CCCCCCN1C(=O)CN=C1Nc1ccc2cc3ccc(NC4=NCC(=O)N4CCCCCC)cc3nc2c1 ?
stdout: active

====

Tested on: DU-145 prostate
TEST_PROTOCOL: NCI-60 one-dose screen, 48 h (100 = growth as untreated, 0 = no growth, -100 = all killed)
DETAILS: 10 µM unless noted
This is part of a sample that, as a whole, favours compounds with a hit. Of some 83,000 tested, about 20% had one in any assay.
MEASURED_ENDPOINT: growth (%)
Answer in %, number only, no unit symbol.

stdin: Specify growth for CC(=O)ON1CCCC(P(=O)(OCOC(=O)C(C)(C)C)OCOC(=O)C(C)(C)C)C1=O (configuration not stated) , system DU-145 prostate.
stdout: 10.7

stdin: State measured growth of the compound CC(C)(C)CC(C)(C)Cc1ccc(OCCOCC[N+](C)(C)Cc2ccccc2)cc1 with DU-145 prostate.
stdout: 53.4

stdin: Given O=C1CCC23OC(C(O)c4ccccc4N12)C1C(Br)=NOC13 (configuration not stated) , report its growth on DU-145 prostate.
stdout: 107

stdin: Using DU-145 prostate as the test system, report measured growth of O=C(/C(=C\c1c(-c2ccccc2)[nH]c2ccccc12)S(=O)(=O)c1ccccc1)c1ccccc1 .
stdout: 68.5

stdin: Report its growth with DU-145 prostate as the test system: C#C[C@@]1(O)[C@@H](CO)O[C@@H](n2cc(Br)c3c(N)ncnc32)[C@@H]1O
stdout: 5

====

System: ACHN renal
TEST_PROTOCOL: NCI-60 one-dose screen, 48 h (100 = growth as untreated, 0 = no growth, -100 = all killed)
DETAILS: 10 µM unless noted
Experimental: Growth inhibition of the ACHN human tumor cell line is measured as a screen for anti-cancer activity. Cells are grown in 96 well plates and exposed to the test compound for 48 hours. Compounds are tested at a single concentration, which is 10^-5 M for most compounds. The reported endpoint is percent growth (GI% or GIPRCNT), where numbers from 0 - 100% represent growth inhibition, and numbers from -100% - 0 represent cell death. For example, a value of 40 represents 60% growth inhibition. […]
The panel holds about 83,000 compounds, 20% with a hit somewhere; the sample as a whole holds those more often.
Label Satisfied when growth is strictly below 70%; otherwise label Not satisfied.

Answered cases to consult:
[[record]]
molecule = "CCOC(=O)/C(=C/c1c(-c2ccccc2)[nH]c2ccccc12)C(=O)c1ccc(Cl)cc1"
tested_system = "ACHN renal"
category_label = "Satisfied"

[[record]]
molecule = "COc1ccc(NC(=O)c2ccc(Nc3ncnc4[nH]c(C)c(C)c34)cc2)cc1"
tested_system = "ACHN renal"
category_label = "Not satisfied"

[[record]]
molecule = "Cc1c(Cl)cccc1NC(=O)c1sc2nc3c(cc2c1N)COCC3"
tested_system = "ACHN renal"
category_label = "Satisfied"

[[record]]
molecule = "Nc1cccc(C(=O)Nc2ccc3c(O)c(N=Nc4ccc(N=Nc5ccc(S(=O)(=O)O)cc5)cc4)c(S(=O)(=O)O)cc3c2)c1"
tested_system = "ACHN renal"
category_label = "Not satisfied"

[[record]]
molecule = "CCCCCCN1C(=O)CN=C1Nc1ccc2cc3ccc(NC4=NCC(=O)N4CCCCCC)cc3nc2c1"
tested_system = "ACHN renal"
category_label = "Satisfied"

[[record]]
molecule = "Nc1cc(N)nc(SCC(=O)O)n1"
tested_system = "ACHN renal"
category_label = "Not satisfied"


Let's switch to this molecule now.
stdin: Consider the molecule COc1ccc(C2CC(c3ccc(OC)cc3O)=NN2c2ccc(S(N)(=O)=O)cc2)cc1 (stereo not given) . Is its growth strictly less than 70%?
stdout: Satisfied

====

System: SK-MEL-2 melanoma
TEST_PROTOCOL: NCI-60 one-dose screen, 48 h (100 = growth as untreated, 0 = no growth, -100 = all killed)
DETAILS: 10 µM unless noted
About 83,000 compounds went through this panel and 20% of them were active in at least one assay; those are over-represented in the sample as a whole.
Quick reference: growth of the listed items.
Answer in %, number only, no unit symbol.

Past entries and their recorded results:
[[record]]
molecule = "Sc1cccc2cccnc12"
measured_endpoint = "growth"
measurement_unit = "%"
observed_value = 21.5

[[record]]
molecule = "COc1ccc(-c2cc(-c3nnc(SCC(=O)Nc4ccc(/C(C)=N\\O)cc4)n3-c3ccccc3)c3cc(OC)ccc3n2)cc1"
measured_endpoint = "growth"
measurement_unit = "%"
observed_value = 86.9

[[record]]
molecule = "COc1ccc2oc(=O)cc(-c3c(C#N)c(N)n4nc(N)c(C#N)c4c3C#N)c2c1"
measured_endpoint = "growth"
measurement_unit = "%"
observed_value = 91.7

[[record]]
molecule = "COC(=O)/C=C1\\SC(=Nc2cccc(OC)c2)N(CCc2c[nH]c3ccccc23)C1=O"
measured_endpoint = "growth"
measurement_unit = "%"
observed_value = 60.8

[[record]]
molecule = "COc1cc2c(cc1OC)C(Sc1ccc(Cl)cc1)c1c(nc(N)c(C#N)c1N)O2 (stereo not given)"
measured_endpoint = "growth"
measurement_unit = "%"
observed_value = -21.1


stdin: State its growth: C=C1C(=O)O[C@H]2[C@H]1CC/C(COC(=O)Nc1nc3ccccc3[nH]1)=C\CC[C@@]1(C)O[C@@H]21
stdout: 68.1

stdin: Fill in reported growth for this entry: O=C1NCc2ccc3c(-c4cccc(Cl)c4)c[nH]c3c21
stdout: 38.6

stdin: Answer with the recorded growth for the molecule listed here: COc1ccc(/C(=N\O)c2cc(C)c(OC)c(C)c2)cc1O
stdout: 37.6

stdin: Give the measured growth for O=C(CCCC(=O)Nc1ccc(-n2nnc3cc(Cl)c(Cl)cc32)cc1)Nc1ccc(-n2nnc3cc(Cl)c(Cl)cc32)cc1
stdout: 53.8

stdin: Report growth for S=C(Nc1ccccc1)c1ccccn1
stdout: 103
